Assay: Pharmacokinetics after single IV bolus dose in dogs
Conditions: male, beagle, dog, in vivo, iv
PROPERTY MEASURED: half-life (h)
Write the value in h as a bare number.

Sure, the documented half-life for C[C@H](Nc1cc(Cl)nc2c1cnn2[C@@H]1O[C@H](COP(=O)(O)CP(=O)(O)O)[C@@H](O)[C@H]1O)c1ccc(F)cc1 is 15

====

Test: Pharmacokinetics after single IV bolus dose in rats
Conditions: male, Sprague-Dawley, rat, in vivo, iv
PROPERTY MEASURED: Vd (L/kg)
Number only, in L/kg; omit the unit.

Summary for this compound, C[C@H](Nc1cc(Cl)nc2c1cnn2[C@@H]1O[C@H](COP(=O)(O)CP(=O)(O)O)[C@@H](O)[C@H]1O)c1ccc(F)cc1 : Vd is 0.12

====

Test: Pharmacokinetics after single IV bolus dose in mice
Conditions: female, CD-1, mouse, in vivo, iv
PROPERTY MEASURED: clearance (mL/min/kg)
Number in mL/min/kg, nothing else.

Entry C[C@H](Nc1cc(Cl)nc2c1cnn2[C@@H]1O[C@H](COP(=O)(O)CP(=O)(O)O)[C@@H](O)[C@H]1O)c1ccc(F)cc1 ; clearance = 0.25

====

Test: Pharmacokinetics after single IV bolus dose in dogs
Details: male, beagle, dog, plasma, iv
PROPERTY MEASURED: half-life (h)
Express your answer in h, writing the number without its unit.

// C[C@H](Nc1cc(Cl)nc2c1cnn2[C@@H]1O[C@H](COP(=O)(O)CP(=O)(O)O)[C@@H](O)[C@H]1O)c1ccccc1F : half-life value = 21

====

Assay: Pharmacokinetics after single IV bolus dose in monkeys
Conditions: male, cynomolgus monkey, plasma, iv
PROPERTY MEASURED: Vd (L/kg)
Hi! Could you send only the number? It should be in L/kg, unit omitted.

response.value for C[C@H](Nc1cc(Cl)nc2c1cnn2[C@@H]1O[C@H](COP(=O)(O)CP(=O)(O)O)[C@@H](O)[C@H]1O)c1ccccc1F (field: Vd) = 0.097

====

Assay: Pharmacokinetics after single IV bolus dose in dogs
Conditions: male, beagle, dog, in vivo, iv
PROPERTY MEASURED: Vd (L/kg)
Give the quantity in L/kg, number only.

For this molecule ( C[C@H](Nc1cc(Cl)nc2c1cnn2[C@@H]1O[C@H](COP(=O)(O)CP(=O)(O)O)[C@@H](O)[C@H]1O)c1ccc(F)cc1 [Compound 2] ), measured Vd is 0.63

====

Assay: Pharmacokinetics after single IV bolus dose in rats
Conditions: male, Sprague-Dawley, rat, plasma, iv
PROPERTY MEASURED: clearance
Kindly report the value followed by its unit.

According to the records, this compound C[C@H](Nc1cc(Cl)nc2c1cnn2[C@@H]1O[C@H](COP(=O)(O)CP(=O)(O)O)[C@@H](O)[C@H]1O)c1ccc(F)cc1 displays clearance of 0.155 mL/min/kg

====

Experiment: Pharmacokinetics after single IV bolus dose in dogs
Settings: male, beagle, dog, plasma, iv
PROPERTY MEASURED: Vd (L/kg)
Give the quantity in L/kg, number only.

Per the records, this molecule ( C[C@H](Nc1cc(Cl)nc2c1cnn2[C@@H]1O[C@H](COP(=O)(O)CP(=O)(O)O)[C@@H](O)[C@H]1O)c1ccccc1F ) has Vd equal to 1.3

====

Assay: Pharmacokinetics after single IV bolus dose in mice
Conditions: female, CD-1, mouse, in vivo, iv
PROPERTY MEASURED: Vd (L/kg)
Numeric only. Scale: L/kg

Entry C[C@H](Nc1cc(Cl)nc2c1cnn2[C@@H]1O[C@H](COP(=O)(O)CP(=O)(O)O)[C@@H](O)[C@H]1O)c1ccc(F)cc1 — recorded Vd = 0.11

The values you see were collected from patent US12433836B2.
